Overview of reported kon across a group of binders:
Target: T1, recombinant human IFN-γ protein (human, UniProt P01579 24-166, limits assumed)
T1 construct: Bought protein; also called interferon gamma; R&D systems 285-IF-100
T1 sequence: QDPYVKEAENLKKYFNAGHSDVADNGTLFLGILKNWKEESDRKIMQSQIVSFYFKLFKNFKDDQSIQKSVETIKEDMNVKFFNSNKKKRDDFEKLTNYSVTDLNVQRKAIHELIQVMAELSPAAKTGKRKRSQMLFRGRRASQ
Experiment: BLI (Octet RED96), mAb captured on AHC biosensor, recombinant human IFN-γ in solution, 1:1 model; second experiment
EXPERIMENTAL ENDPOINT: kon (M⁻¹ s⁻¹)

antibody AB (antibody, human IgG1, V domains shown, Combination of the 2A6 VH heavy chain and the 2B6 VL light chain; human IgG1 lambda; also called VH2A6/VL2B6) VH: EVQLVESGGGLVKPGDSLTVSCVASGFTFSNYFIHWVRQAPGKGLEWVATISGRTKYMFYSDSLRGRFTVSRDNANNSVYLHMSSLRGEDTALYYCVRGYDHSDSNSAADLLHWGRGTLVTVSS VL: NFMLTQPHSVSESPGKTITISCTRGRGYIASYYVQWYQQRPGGVPKIVVFEDTQRPSGVPDRISGSIDTSTNSASLTISGLQTEDEADYYCQSYDDANHVIFGGGTKLTVL	2.19e+06
antibody 2A6_Q (antibody, human IgG1, V domains shown, removes the N-glycosylation site of the VH; human IgG1 lambda; also called c2A6_Q) VH: EVQLVESGGGLVKPGDSLTVSCVASGFTFSNYFIHWVRQAPGKGLEWVATISGRTKYMFYSDSLRGRFTVSRDNAQNSVYLHMSSLRGEDTALYYCVRGYDHSDSNSAADLLHWGRGTLVTVSS VL: NFMLTQPLSVSGYPGKTIVISCVRSSGSVASHYVQWFQQRPGSAPAMVIYEDSHRPSGIPDRFSGSVDASSNSASLTISGLKTEDEADYFCQSYYGNNQVLFGGGTKLTVL	2.41e+06
antibody 2A6_A (antibody, human IgG1, V domains shown, removes the N-glycosylation site of the VH; human IgG1 lambda; also called c2A6_A) VH: EVQLVESGGGLVKPGDSLTVSCVASGFTFSNYFIHWVRQAPGKGLEWVATISGRTKYMFYSDSLRGRFTVSRDNAANSVYLHMSSLRGEDTALYYCVRGYDHSDSNSAADLLHWGRGTLVTVSS VL: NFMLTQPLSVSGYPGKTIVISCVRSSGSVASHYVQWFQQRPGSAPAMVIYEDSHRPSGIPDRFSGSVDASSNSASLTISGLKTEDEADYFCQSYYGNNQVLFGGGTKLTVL	2.32e+06
